- experimental-target: pseudo-kinase domain (JH2) of human Wild Type JAK2 (Homo sapiens, UniProt O60674, F794H/W659A/W777A)
- Construct: pseudo-kinase domain (JH2, amino-acids 536-812 with 3 surface mutations W659A, W777A, F794H); His (C)
- Sequence (O60674 536-812 W659A/W777A/F794H): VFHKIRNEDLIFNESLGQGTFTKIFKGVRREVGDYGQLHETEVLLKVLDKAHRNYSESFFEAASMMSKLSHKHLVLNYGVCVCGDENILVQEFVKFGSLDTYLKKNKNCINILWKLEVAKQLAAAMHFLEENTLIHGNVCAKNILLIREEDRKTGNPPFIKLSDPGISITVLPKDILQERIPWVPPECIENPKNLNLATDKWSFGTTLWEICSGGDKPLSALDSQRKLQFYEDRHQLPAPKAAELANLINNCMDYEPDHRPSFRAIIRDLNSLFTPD
- procedure-text: JAK2 LanthaScreen JH2-WT Binding Assay
- condition-summary: 50 nM Fluorescent JAK2-JH2 Tracer, 1 hour at 25° C.

- compound: "CN(C)S(=O)(=O)c1ccc(-c2[nH]c3nc(N)[nH]c(=O)c3c2-c2ccc(C#N)cc2)cc1"
  IC50: "500 to 1000 nM"
- compound: "CN(C)S(=O)(=O)c1ccc(-c2[nH]c3nc(N)[nH]c(=O)c3c2-c2cccc3c2cnn3C)cc1"
  IC50: "> 2500 nM"
- compound: "CCc1c(-c2ccccc2)[nH]c2nc(N)[nH]c(=O)c12"
  IC50: "> 2500 nM"
- compound: "CCOc1ccccc1-c1c(-c2ccc(S(=O)(=O)N(C)C)cc2)[nH]c2nc(N)[nH]c(=O)c12"
  IC50: "1000 to 2500 nM"
- compound: "CN(C)S(=O)(=O)c1ccc(-c2[nH]c3nc(N)[nH]c(=O)c3c2-c2ccccc2F)cc1"
  IC50: "100 to 500 nM"
- compound: "CN(C)S(=O)(=O)c1ccc(-c2[nH]c3nc(N)[nH]c(=O)c3c2-c2ccccc2OC(F)F)cc1"
  IC50: "> 2500 nM"
- compound: "Nc1nc2[nH]c(-c3ccccc3)c(-c3cccc(F)c3)c2c(=O)[nH]1"
  IC50: "1000 to 2500 nM"
- compound: "CN(C)S(=O)(=O)c1ccc(-c2[nH]c3nc(N)[nH]c(=O)c3c2-c2ccccc2Cl)cc1"
  IC50: "1000 to 2500 nM"
- compound: "CN(C)S(=O)(=O)c1ccc(-c2[nH]c3nc(N)[nH]c(=O)c3c2-c2cnn(C3CCS(=O)(=O)C3)c2)cc1 (stereo not drawn)"
  IC50: "1000 to 2500 nM"
- compound: "CN(C)S(=O)(=O)c1ccc(-c2[nH]c3nc(N)[nH]c(=O)c3c2-c2ccc(C(F)F)cc2)cc1"
  IC50: "500 to 1000 nM"
- compound: "Cc1cccc(-c2c(-c3ccc(S(=O)(=O)N(C)C)cc3)[nH]c3nc(N)[nH]c(=O)c23)c1F"
  IC50: "100 to 500 nM"
- compound: "CN(C)S(=O)(=O)c1ccc(-c2[nH]c3nc(N)[nH]c(=O)c3c2-c2ccc(S(C)(=O)=O)cc2)cc1"
  IC50: "100 to 500 nM"
- compound: "CN1CCOc2cc(-c3c(-c4ccc(S(=O)(=O)N(C)C)cc4)[nH]c4nc(N)[nH]c(=O)c34)ccc21"
  IC50: "500 to 1000 nM"
- compound: "CN(C)S(=O)(=O)c1ccc(-c2[nH]c3nc(N)[nH]c(=O)c3c2-c2cnn(Cc3cccnc3)c2)cc1"
  IC50: "> 2500 nM"
- compound: "CN(C)S(=O)(=O)c1ccc(-c2[nH]c3nc(N)[nH]c(=O)c3c2-c2cnn(Cc3ccccc3)c2)cc1"
  IC50: "> 2500 nM"
